B1: KIAA1161 (parent)
chain: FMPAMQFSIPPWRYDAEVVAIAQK

# Variants of: B1
# Assay Method Text: protein stability index of a GFP-peptide fusion (GPS, HEK-293T) (PSI 1-6); higher = more stable;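 note: lentivirally expressed fusions sorted by FACS into six bins by GFP to DsRed ratio, PSI derived from sequencing read proportions per bin multiplied by bin number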
# Particulars: c terminus: a fixed tail appended
Measured Property: protein stability index

> print(dat)
    mutant.label  observed
 1          P11V      1.01
 2           M5K      1.95
 3          W12R      2.39
 4           M5Y      1.77
 5          P10D      1.27
 6          V18T      1.88
 7          Q23S      1.52
 8          Q23K       2.2
 9           S8I      2.81
10          V18M      1.88
11          Q23D      2.69
12          A16N      2.02
13          Q23N      1.85
14           M2L      1.46
15           Q6K      1.93
16          Y14N      2.37
17           F1L      2.37
18          E17K      2.66
19          P10W      3.74
20           F1N      2.61
21          K24V      2.36
22          W12Q       2.3
